meta.source: the Human Domainome abundance scans (Beltran et al. 2025)

B1: Serine/threonine-protein kinase A-Raf, residues 21 to 89; numbered along this chain, P10398 (parent)
chain: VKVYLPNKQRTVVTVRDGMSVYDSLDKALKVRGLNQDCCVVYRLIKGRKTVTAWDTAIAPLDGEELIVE

- Variants of: B1
- experiment: abundance fitness (aPCA) (normalised: wild type 0, dead -1); higher = more abundant; growth selection in yeast, the domain comes from the species named
- settings: Homo sapiens
measurement type: abundance fitness
Would you mind answering with just the numeric figure?

Example variants with recorded abundance fitness:
{"variant descriptor": "T52H", "abundance fitness": -0.625}
{"variant descriptor": "I45P", "abundance fitness": -1.1}
{"variant descriptor": "M19F", "abundance fitness": -0.274}
{"variant descriptor": "D37E", "abundance fitness": -0.141}
{"variant descriptor": "E65C", "abundance fitness": -0.122}
{"variant descriptor": "R16T", "abundance fitness": -0.086}

What does the record list as abundance fitness for L34H ?
-0.789

Now this one: D26M
-0.119

Now this one: V31W
-0.305
